Readings of Kd for the listed binders
Biological target: T1, AVITAG CD122/CD132 heterodimer (human, UniProt P14784 27-239; P31785 23-262)
T1 construct: also called IL-2Rβ/γ
T1 sequence 1: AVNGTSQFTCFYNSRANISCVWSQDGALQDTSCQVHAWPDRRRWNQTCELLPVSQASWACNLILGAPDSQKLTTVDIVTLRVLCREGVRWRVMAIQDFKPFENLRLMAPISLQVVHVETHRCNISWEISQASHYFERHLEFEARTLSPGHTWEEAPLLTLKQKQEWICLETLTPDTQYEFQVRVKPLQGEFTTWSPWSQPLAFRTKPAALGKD
T1 sequence 2: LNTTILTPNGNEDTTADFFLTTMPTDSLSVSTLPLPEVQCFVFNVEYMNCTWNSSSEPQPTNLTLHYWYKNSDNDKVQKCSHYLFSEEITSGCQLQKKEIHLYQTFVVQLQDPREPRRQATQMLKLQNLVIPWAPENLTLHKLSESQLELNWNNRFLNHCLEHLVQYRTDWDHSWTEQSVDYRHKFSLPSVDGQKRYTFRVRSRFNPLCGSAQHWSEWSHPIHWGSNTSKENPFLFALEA
Assay: BLI (OCTET RED96); receptor loaded on biosensor, IL-2 mutein in solution at 10 to 2,000 nM
# value in nM; strip the unit string

Binder	Kd [nM]
IL-2-IL-15 Chimera 56 (T3A, C125S, S130R) (ligand, no fusion partner is stated) APASSSTKKTQLQLEHLLLDLQMILNGIQSMEIDATTFKFYMPKKATELKHLQCLEEELKPLEEVLNLAQSKNFHLRPRDLISNINVIVLELKGSETTFMCEYADETATIVEFLNRWITFSQSIIRTLT	12
IL-2-IL-15 Chimera 69 (T3A, L18S, C125S, Q126E) (ligand, no fusion partner is stated) APASSSTKKTQLQLEHLSLDLQMILNGIQSMEIDATTFKFYMPKKATELKHLQCLEEELKPLEEVLNLAQSKNFHLRPRDLISNINVIVLELKGSETTFMCEYADETATIVEFLNRWITFSESIISTLT	322
hIL-2 Mutein (T3A, R38E, F42A, K76E, C125S) (ligand, no fusion partner is stated) APASSSTKKTQLQLEHLLLDLQMILNGINNYKNPKLTEMLTAKFYMPKKATELKHLQCLEEELKPLEEVLNLAQSENFHLRPRDLISNINVIVLELKGSETTFMCEYADETATIVEFLNRWITFSQSIISTLT	1

According to the records, this binder IL-2-IL-15 Chimera 58 (T3A, L18C, Q126E) (ligand, no fusion partner is stated) APASSSTKKTQLQLEHLCLDLQMILNGIQSMEIDATTFKFYMPKKATELKHLQCLEEELKPLEEVLNLAQSKNFHLRPRDLISNINVIVLELKGSETTFMCEYADETATIVEFLNRWITFCESIISTLT displays Kd of 229

According to the records, this binder IL-2-IL-15 Chimera 2 (T3A, C125S) (ligand, hIL-2 with N29-L40 replaced by an IL-15 hinge fragment-containing peptide; no fusion partner is stated) APASSSTKKTQLQLEHLLLDLQMILNGIQSMEIDATTFKFYMPKKATELKHLQCLEEELKPLEEVLNLAQSKNFHLRPRDLISNINVIVLELKGSETTFMCEYADETATIVEFLNRWITFSQSIISTLT displays Kd of 11

According to the records, this binder hIL-2 Mutein (T3A, F42A, Y45A, L72G, C125S) (ligand, no fusion partner is stated) APASSSTKKTQLQLEHLLLDLQMILNGINNYKNPKLTRMLTAKFAMPKKATELKHLQCLEEELKPLEEVLNGAQSKNFHLRPRDLISNINVIVLELKGSETTFMCEYADETATIVEFLNRWITFSQSIISTLT displays Kd of 6.8

According to the records, this binder IL-2-IL-15 Chimera 46 (T3A, C125S, Q126E) (ligand, no fusion partner is stated) APASSSTKKTQLQLEHLLLDLQMILNGIQSMEIDATTFKFYMPKKATELKHLQCLEEELKPLEEVLNLAQSKNFHLRPRDLISNINVIVLELKGSETTFMCEYADETATIVEFLNRWITFSESIISTLT displays Kd of 219
